Test: Tmax in Sprague-Dawley rat plasma at 20 mg/kg, ip
Assay type: ADME, organism-based
Design: dose 20 mg/kg, route intraperitoneal

{"Test smiles": "Cc1ccc(C)c(COc2cc(NC(=O)c3ccc4c(c3)OCO4)ccc2N(C)S(C)(=O)=O)c1", "Tmax / h": 2}

----------
Experiment: Mean residence time (0 to t) in Sprague-Dawley rat at 20 mg/kg, ip
Type: ADME, organism-based
Design: dose 20 mg/kg, route intraperitoneal
Settings: in vivo
Quantity kind: MRT last (h)

{"Test smiles": "Cc1ccc(C)c(COc2cc(NC(=O)c3ccc4c(c3)OCO4)ccc2N(C)S(C)(=O)=O)c1", "Quantity kind": "MRT last", "Quantity unit": "h", "Experimental value": 6}

----------
Experiment: Terminal half life in Sprague-Dawley rat at 20 mg/kg, ip
Format: ADME, organism-based
Parameters: dose 20 mg/kg, route intraperitoneal
Details: in vivo, read-out: beta t1/2 (converted)

{"Test smiles": "Cc1ccc(C)c(COc2cc(NC(=O)c3ccc4c(c3)OCO4)ccc2N(C)S(C)(=O)=O)c1", "half-life": "3.12 h"}

----------
Assay: Apparent volume of distribution during terminal phase in Sprague-Dawley rat at 20 mg/kg, ip
Type: ADME, organism-based
Design: dose 20 mg/kg, route intraperitoneal
Settings: in vivo, read-out: Vz/F

{"Test smiles": "Cc1ccc(C)c(COc2cc(NC(=O)c3ccc4c(c3)OCO4)ccc2N(C)S(C)(=O)=O)c1", "Vd/F": "2.16 L/kg"}
